Parameter: MBP Fold Induction (Over vehicle). Scope: all listed entries.
Test system: Oligodendrocyte progenitor cells (OPCs)
experimentNotes: In vitro OPC differentiation assay, MBP expression (immunocytochemistry)
conditionLabel: 72 hours of treatment; fold change over vehicle

In the examples that follow, each entry is paired with its recorded MBP Fold Induction (Over vehicle).
{"compound": "C[C@@H](OC(=O)N1CCN(c2cnn3cc(-c4cnn(C)c4)ccc23)CC1)c1ccc(Cl)cc1", "targetOfAssay": "Oligodendrocyte progenitor cells (OPCs)", "result": 10.93}
{"compound": "Cn1cc(-c2ccc3c(N4CCN(c5ncc(C(O)CCc6ccccc6)cn5)CC4)cnn3c2)cn1 (stereo not shown)", "targetOfAssay": "Oligodendrocyte progenitor cells (OPCs)", "result": 6.20}
{"compound": "Cn1cc(-c2ccc3c(N4CCCN(c5ncc(Cc6ccccc6)cn5)CC4)cnn3c2)cn1", "targetOfAssay": "Oligodendrocyte progenitor cells (OPCs)", "result": 2.95}

Query compound follows.
Consider the compound Cn1cc(-c2ccc3c(N4CCN(C(=O)Cc5ccccc5)CC4)cnn3c2)cn1 . State its measured MBP Fold Induction (Over vehicle).
1.77

* * *

Test system: Oligodendrocyte progenitor cells (OPCs)
experimentNotes: In vitro OPC differentiation assay, GPR17 expression (immunocytochemistry)
conditionLabel: 3 μM (10× concentration, final 0.3 μM); 72 hours; fold change over vehicle
measureName: GPR17 Fold Induction (Over Vehicle; 3 μM)
Just the number.

{"compound": "Cn1cc(-c2ccc3c(N4CCN(C(=O)OCC5CCOCC5)CC4)cnn3c2)cn1 [Compound 14]", "resultNumber": 1.11}
{"compound": "Cn1cc(-c2ccn3c(N4CCN(c5ncc(Cc6ccccc6)cn5)CC4)cnc3n2)cn1 [Compound 121]", "resultNumber": 4.71}

Give GPR17 Fold Induction (Over Vehicle; 3 μM) for CC(C)(C)OC(=O)N1CCN(c2cnc3cc(C4CCOC4)ncn23)CC1 (centres unmarked) [Compound 90] tested on Oligodendrocyte progenitor cells (OPCs).
0.92

Please tell me the measured GPR17 Fold Induction (Over Vehicle; 3 μM) for CC(OC(=O)N1CCN(c2cnn3cc(-c4cnn(C)c4)ccc23)CC1)c1ccc(Cl)cc1 (centres unmarked) [Compound 265] ; system: Oligodendrocyte progenitor cells (OPCs).
7.72

Please respond with reported GPR17 Fold Induction (Over Vehicle; 3 μM) (system Oligodendrocyte progenitor cells (OPCs)) for Cn1cc(-c2ccc3c(N4CCN(c5ncc(C(=O)c6ccc(F)cc6)cn5)CC4)cnn3c2)cn1 [Compound 25] .
1.07

Tell me GPR17 Fold Induction (Over Vehicle; 3 μM) of CN(Cc1ccccc1)C(=O)C1CCC(c2cnn3cc(-c4cnn(C)c4)ccc23)C1 (centres unmarked) [Compound 140] when tested on Oligodendrocyte progenitor cells (OPCs).
3.54

Would you please give the reported GPR17 Fold Induction (Over Vehicle; 3 μM) of Cn1cc(-c2ccc3c(N4CCN(c5ncc(C(O)c6ccccc6)o5)CC4)cnn3c2)cn1 (centres unmarked) [Compound 248] with Oligodendrocyte progenitor cells (OPCs)?
3.90

Check Oligodendrocyte progenitor cells (OPCs) data and give GPR17 Fold Induction (Over Vehicle; 3 μM) for Cn1cc(-c2ccc3c(N4CCN(c5ncc(C(O)c6ccccn6)cn5)CC4)cnn3c2)cn1 (centres unmarked) [Compound 59] .
5.49

* * *

Overview of reported GPR17 Fold Induction (Over Vehicle; 3 μM) across a group of molecules:
Test system: Oligodendrocyte progenitor cells (OPCs)
experimentNotes: In vitro OPC differentiation assay, GPR17 expression (immunocytochemistry)
conditionLabel: 3 μM (10× concentration, final 0.3 μM); 72 hours; fold change over vehicle
Answer as a number with no unit attached.

For Cn1cc(-c2cnn3c(N4CCN(S(=O)(=O)NCc5ccc(C(F)(F)F)cc5)CC4)cnc3c2)cn1 [Compound 296] , write its GPR17 Fold Induction (Over Vehicle; 3 μM).
10.65

Report measured GPR17 Fold Induction (Over Vehicle; 3 μM); entry is Cn1cc(-c2ccc3c(N4CCN(c5ncc(Cc6ccc(Cl)cc6)cn5)CC4)cnn3c2)cn1 [Compound 65]
5.18

* * *

targetOfAssay: PDGFRα (Homo sapiens (Human))
Sequence (P16234 24-1089): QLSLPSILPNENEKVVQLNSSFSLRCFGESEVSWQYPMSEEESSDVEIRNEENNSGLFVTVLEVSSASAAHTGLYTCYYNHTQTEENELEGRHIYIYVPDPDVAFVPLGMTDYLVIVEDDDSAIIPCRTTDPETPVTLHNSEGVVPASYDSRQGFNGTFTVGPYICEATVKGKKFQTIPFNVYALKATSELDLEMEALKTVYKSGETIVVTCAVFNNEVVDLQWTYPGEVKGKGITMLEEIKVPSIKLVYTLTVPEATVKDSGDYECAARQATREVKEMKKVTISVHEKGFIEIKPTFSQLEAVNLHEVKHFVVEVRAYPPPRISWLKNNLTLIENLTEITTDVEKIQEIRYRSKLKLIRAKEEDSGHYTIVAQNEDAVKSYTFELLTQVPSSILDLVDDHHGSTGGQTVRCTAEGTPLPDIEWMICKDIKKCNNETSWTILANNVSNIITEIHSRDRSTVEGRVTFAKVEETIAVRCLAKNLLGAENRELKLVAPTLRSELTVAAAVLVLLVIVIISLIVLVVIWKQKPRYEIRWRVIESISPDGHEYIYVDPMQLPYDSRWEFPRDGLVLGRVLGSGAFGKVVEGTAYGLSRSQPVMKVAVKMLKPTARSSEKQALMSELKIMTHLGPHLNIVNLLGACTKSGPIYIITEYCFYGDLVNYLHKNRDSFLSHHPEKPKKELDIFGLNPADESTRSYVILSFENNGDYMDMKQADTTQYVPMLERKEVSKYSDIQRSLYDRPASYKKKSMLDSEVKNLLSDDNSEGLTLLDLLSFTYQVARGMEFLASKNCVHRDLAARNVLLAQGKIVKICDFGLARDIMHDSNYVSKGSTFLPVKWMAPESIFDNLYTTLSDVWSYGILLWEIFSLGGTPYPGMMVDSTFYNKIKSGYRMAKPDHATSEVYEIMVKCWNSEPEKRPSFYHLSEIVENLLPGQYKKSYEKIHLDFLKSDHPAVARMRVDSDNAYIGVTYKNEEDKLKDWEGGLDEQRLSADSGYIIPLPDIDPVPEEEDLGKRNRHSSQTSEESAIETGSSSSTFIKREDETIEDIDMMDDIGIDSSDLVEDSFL
experimentNotes: PDGFRα kinase enzyme assay (Promega PDGFRα Kinase Enzyme System, ADP-Glo)
Format: biochemical
conditionLabel: 11-point dose response, 10,000 nM to 0.169 nM; 150 uM ATP; BLQ = below limit of quantitation; read-out: IC50 Values on PDGFRα Kinase Inhibition, IC50
# reported pIC50; entries follow
The value called pIC50 is obtained by taking minus log10 of the concentration in mol/L.

{"molecule": "Cn1cc(-c2ccc3c(N4CCN(C(=O)OCc5ccccc5)CC4)cnn3c2)cn1", "targetOfAssay": "PDGFRα (Homo sapiens (Human))", "pIC50": 6.38}

Give measured pIC50 for Cn1cc(-c2ccc3c(N4CC=C(c5ncc(Cc6ccccc6)cn5)CC4)cnn3c2)cn1 (PDGFRα (Homo sapiens (Human))).
5.45

Quote PDGFRα (Homo sapiens (Human)) pIC50 for entry Cn1cc(-c2ccc3c(N4CCN(c5ccc(Cc6ccccc6)cc5)CC4)cnn3c2)cn1 .
5.94

Tell me its pIC50 on PDGFRα (Homo sapiens (Human)): CC(C)n1cc(-c2ccc3c(N4CCN(C(=O)OC(C)(C)C)CC4)cnn3c2)cn1
6.51

With PDGFRα (Homo sapiens (Human)) as the test system, provide measured pIC50 for this molecule: Cn1cc(-c2ccc3c(N4CCN(c5nnc(Cc6ccccc6)o5)CC4)cnn3c2)cn1
7.23

// fetch pIC50 for Cn1cc(-c2ccc3c(N4CCN(c5ncc(C(O)C6CCCCC6)cn5)CC4)cnn3c2)cn1 (stereo not shown) ; system: PDGFRα (Homo sapiens (Human))
8.28

* * *

System: GPR17+ cells (newly differentiated oligodendrocytes)
experimentNotes: In vivo OPC differentiation, GPR17+ cells in brain
conditionLabel: adult female C57BL/6 mice, PO or IP, treatment period 1-3 days, entire brain, fold change over vehicle treated animals
Where a name gives a salt, the structure may show the parent alone.
measureName: In vivo GPR17+ cells, GPR17 Fold Induction (Over Vehicle)
Please give only the number in your answer, with no unit.

{"molecule": "COCCOc1ccc2c(c1)ncn2-c1ccc2cccc(N3CCC(N)CC3)c2n1 [CP-673451, reference compound]", "resultNumber": 3.52}
{"molecule": "CN1CCN(c2ccc(Nc3ncc4cc(C#N)c(=O)n(C5CCCC5)c4n3)cc2)CC1 [ON123300, reference compound]", "resultNumber": 1.49}
{"molecule": "S=C(NCc1ccc2c(c1)OCO2)N1CCN(c2ncnc3c2oc2ccccc23)CC1 [Amuvatinib, amuvatinib, reference compound]", "resultNumber": 2.18}
{"molecule": "Cc1[nH]c(/C=C2\\C(=O)Nc3ccc(F)cc32)c(C)c1C(=O)NC[C@H](O)CN1CCOCC1 [SU-14813, reference compound]", "resultNumber": 2.63}
{"molecule": "Nc1nc(Nc2ccc3c(c2)CC[C@@H](N2CCCC2)CC3)nn1-c1cc2c(nn1)-c1ccccc1CCC2 [Bemcentinib, bemcentinib, reference compound]", "resultNumber": 1.09}
{"molecule": "Cc1[nH]c(/C=C2\\C(=O)Nc3ccccc32)c(C)c1CCC(=O)O [Orantinib, orantinib, reference compound]", "resultNumber": 2.43}
{"molecule": "CNC(=O)c1cc(COc2nnc(Nc3ccc(Cl)cc3)c3ccoc23)ccn1 [Telatinib, telatinib, reference compound]", "resultNumber": 10.68}
{"molecule": "COc1cc2c(Oc3ccc4[nH]c(C)cc4c3F)ccnc2cc1OCC1(N)CC1 [Anlotinib HCl, anlotinib HCl, reference compound]", "resultNumber": 17.89}
{"molecule": "Cc1ccccc1C(OCCN(C)C)c1ccccc1 (centres unmarked) [Orphenadrine]", "resultNumber": 1.07}
{"molecule": "CN1CCC[C@@H]1CCO[C@](C)(c1ccccc1)c1ccc(Cl)cc1 [Clemastine, clemastine, reference compound]", "resultNumber": 1.55}

Quickly give me recorded In vivo GPR17+ cells, GPR17 Fold Induction (Over Vehicle) for COc1ccc(N2Cc3cnc(Nc4ccc(F)cc4)nc3N([C@@H]3CC[C@@H](O)C3)C2=O)cc1 [RO4396686, reference compound]
9.23

Quickly give me recorded In vivo GPR17+ cells, GPR17 Fold Induction (Over Vehicle) for CN(C[C@@H]1COCCO1)S(=O)(=O)Nc1ccc2ccc3ncc(-c4cnn(C)c4)cc3c(=O)c2c1 [MK-2461, reference compound]
1.47

Give a short answer stating reported In vivo GPR17+ cells, GPR17 Fold Induction (Over Vehicle) for COc1cc2c(cc1OC)-c1[nH]nc(Nc3cccc(F)c3)c1C2 [JNJ-10198409, JNJ=10198409, reference compound] .
1.16

Look up and state reported In vivo GPR17+ cells, GPR17 Fold Induction (Over Vehicle) for CCN(CC)CCNC(=O)c1c(C)[nH]c(/C=C2\C(=O)Nc3ccc(-c4csc(-c5ccccc5)n4)cc32)c1C [Amcasertib, amcasertib, reference compound]
1.49

* * *

System: Oligodendrocyte progenitor cells (OPCs)
experimentNotes: In vitro OPC differentiation assay, GPR17 expression (immunocytochemistry)
conditionLabel: 3 μM (10× concentration, final 0.3 μM); 72 hours; fold change over vehicle
Decision: GPR17 Fold Induction (Over Vehicle; 3 μM) compared against 9; not below it gives yes, below it gives no.

{"molecule": "Cn1cc(-c2ccc3c(N4CCN(C(=O)CCc5ccccc5)CC4)cnn3c2)cn1", "targetOfAssay": "Oligodendrocyte progenitor cells (OPCs)", "categoryLabel": "no"}

Now, please, on to the next molecule.
Tell me whether GPR17 Fold Induction (Over Vehicle; 3 μM) is at least 9 here: Cn1cc(-c2ccc3c(N4CCN(C(=O)Cc5ccccc5)CC4)cnn3c2)cn1
no
